Origin of values: the RNAGym collection of RNA variant scans (doi:10.7554/elife.90254)

B1: LINE1-full (parent)
chain: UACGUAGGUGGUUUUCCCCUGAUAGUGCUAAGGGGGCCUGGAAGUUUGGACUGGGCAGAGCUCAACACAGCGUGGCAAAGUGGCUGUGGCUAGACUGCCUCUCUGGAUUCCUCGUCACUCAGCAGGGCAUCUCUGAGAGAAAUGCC

variants of: B1; test: self-cleavage, relative activity (ratio to wild type); higher = more cleavage; in vitro, sequencing; the parent is a self-cleaving ribozyme
Outcome: class 1 for self-cleavage of at least 2; class 0 for anything lower.

Check this variant for self-cleavage at or above 2: UGCGUAGGUGGUUUUCCCCUGAUUGUGCUAAGGGGGCCUGGAAGUUUGGACUGGGCAGAGCUCAACACAGCGUGGCAAAGUGGCUGUGGCUAGACUGCCUCUCUGGAUUCCUCGUCACUCAGCAGGGCAUCUCUGAGAGAAAUGCC [A2G A24U]
class 0

Same question, UACGAAGGUGGUUUUCCCCUGAUAGUGCUAAGGGGGCCUGGAAGUUUGGACUGGGCAGAGCUCAACACAGCGAGGCAAAGUGGCUGUGGCUAGACUGCCUCUCUGGAUUCCUCGUCACUCAGCAGGGCAUCUCUGAGAGAAAUGCC [U5A U73A] this time
class 1

Same question, UACGUAGGUGGUUUUCCCCUGAUAGUGCUAAGGGGGCCUGGAAGUUUGGACUGGGCAGAGCUCAACACAGCGUGGCAAAGUGGCUGUGGCUGGACUGCCUCUCUGGAUUCCUCGUCACUCAGCAGGGCAUCUCCGAGAGAAAUGCC [A92G U134C] this time
class 0

Same question, UACGUAGGUGGUUUUCCCCUGAUAGUGCUAAGGGGGCCUGGAAGUUUGGACUGGGCAGAGCUCAACACAGCGUGGCAUAGUGGCUGUGGCUAGACUGCCUCUCUGGAUUCCUCGUCACUCAGCAGGCCAUCUCUGAGAGAAAUGCC [A78U G127C] this time
class 1

Same question, UACGUAGGUGGCUUUCCCCUGAUAGUGCUAAGGGGGCCUGGAAGUUUGGACUGGGCAGAGCUCAACACGGCGUGGCAAAGUGGCUGUGGCUAGACUGCCUCUCUGGAUUCCUCGUCACUCAGCAGGGCAUCUCUGAGAGAAAUGCC [U12C A69G] this time
class 0

Same question, UACGUAGGUGGUUUUCCCCUGAUAGUGCUAAGGGGGCCUGGAAGUAUGGACUGGGCAGAGCUCAACACAGCGUGGCAGAGUGGCUGUGGCUAGACUGCCUCUCUGGAUUCCUCGUCACUCAGCAGGGCAUCUCUGAGAGAAAUGCC [U46A A78G] this time
class 0

Same question, UACGUAGGUGGUUUUCCCCUGAUAGUGCUAAGGGGGCCUGGAGGUUUGGACUGGGCAGAGCUCAACACAGCGUGGCAAAGUGGCUGUGGCUAGACUGCCUCUCUGGAUUCCUCGUCACUCAGCAGGGCAUCACUGAGAGAAAUGCC [A43G U132A] this time
class 0

Same question, UACGUAGGUGGUUUUCCCCUGAUAGUGCUAAGGGGGCCUGGAAGUUUGGACUGGGCAGAGCUCAGCACAGCGUGGCAAAGUGGCUGUGGCUAGACUGCCUCUCUGGAUUCCUCGUCACUCAGCAGGGUAUCUCUGAGAGAAAUGCC [A65G C128U] this time
class 0

Same question, UACGUAGGUGGUUUUCCCCUGAUAGUGCUAAGGGGGCCUGGAAGUUUGGACUGGGCAGAGCUCAACACAGCGUGGCAAAAUGGCUGUGGCUAGACUGCCUCUCUGGAUUCCUCGUCACUCAGCUGGGCAUCUCUGAGAGAAAUGCC [G80A A124U] this time
class 1

Same question, UACGUAGGUAGUUUUCCCCUGAUAGUGCUAAGGGGGCCUGGAAGUUUGGACUGGGCAGAGCUCAACACAGCGUGGCAAAGUGGCUGUGGCUAGACUGCCUCUCUGGAUUCCCCGUCACUCAGCAGGGCAUCUCUGAGAGAAAUGCC [G10A U112C] this time
class 0

Same question, UACGUAGGUGGUUUUCCCCUGAUAGUGCUAAGGGGGCCUGGAAGUUUGGACAGGGCAGAGCUCAACACAGCGUGGCAAAGUGGCUGUGGCUAGACUGCCUCUCUGGAUUCCUCGUCACUCAGCAGGGCAUCUCUCAGAGAAAUGCC [U52A G135C] this time
class 0
